Reference for the values: patent US10323038B2

The entries below are paired with their reported inhibition at 1 µM.
target: MAGL (Mus musculus (Mouse), UniProt O35678); assay: In vitro competitive activity-based protein profiling, MAGL (mouse); assay type: biochemical; settings: 1 μM, read-out: MAGL % inh. 1 μM (mouse)
Sequence (O35678 whole entry): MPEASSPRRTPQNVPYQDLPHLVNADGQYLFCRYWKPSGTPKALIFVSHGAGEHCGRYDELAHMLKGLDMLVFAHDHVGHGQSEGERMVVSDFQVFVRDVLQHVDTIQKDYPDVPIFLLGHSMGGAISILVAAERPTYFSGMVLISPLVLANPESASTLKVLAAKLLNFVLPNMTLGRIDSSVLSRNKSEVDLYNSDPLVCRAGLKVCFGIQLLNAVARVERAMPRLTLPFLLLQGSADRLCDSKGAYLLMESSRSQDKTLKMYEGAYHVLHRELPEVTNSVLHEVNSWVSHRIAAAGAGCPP

Some solved entries appear below for comparison.
CC(=O)N(C)c1cnn(C(=O)N2CCC3(CCN(Cc4cc(C(F)(F)F)ccc4N4CCCC4)C3)C2)c1 (stereo not shown) | ≥ 75%
CC(=O)N(C)c1cnn(C(=O)N2CC3CN(Cc4ccccc4F)CC3C2)c1 (stereo not shown) | ≥ 75%
CC(=O)N(C)c1cnn(C(=O)N2CC3CN(Cc4ccc(N5CCCC5)c(C(F)(F)F)c4)CC3C2)c1 (stereo not shown) | ≥ 75%
CC(=O)N(C)c1cnn(C(=O)N2CC3CN(Cc4cc(C(F)(F)F)ccc4C(F)(F)F)CC3C2)c1 (stereo not shown) | ≥ 75%
CC(=O)N(C)c1cnn(C(=O)N2C[C@H]3C[C@@H](N(C)Cc4cccc(Cl)c4)C[C@H]3C2)c1 | 50 to 75%
CC(=O)N(C)c1cnn(C(=O)N2CC3CN(Cc4ccccc4N4CCCC4)CC3C2)c1 (stereo not shown) | ≥ 75%

Turning now to a further record.
Requested field: inhibition at 1 µM. Item: `CC(=O)N(C)c1cnn(C(=O)N2CC3(CCN(Cc4ccc(Cl)cc4)CC3)C2)c1`
50 to 75%

* * *

The next entries give measured IC50 for FAAH (Mus musculus (Mouse), UniProt O08914).

Some solved entries appear below for comparison.
CC(=O)N(C)c1cnn(C(=O)N2CC3CN(Cc4ccc(N5CCCC5)cc4)CC3C2)c1 (stereo not shown) [Example 13] | 100 to 1000 nM
CC(=O)N(C)c1cnn(C(=O)N2CC3CN(Cc4ccc(N5CCOCC5)cc4C(F)(F)F)CC3C2)c1 (stereo not shown) [Example 131] | ≤ 100 nM
CS(=O)(=O)Nc1cnn(C(=O)N2CCN(Cc3ccc(-c4ccccc4)cc3Cl)CC2)c1 [Example 221] | ≤ 100 nM

Turning now to a further record.
Requested field: IC50. Item: CC(=O)N(C)c1cnn(C(=O)N2CCC3(CC2)CN(Cc2ccccc2Cl)C3)c1 [Example 40]
100 to 1000 nM

* * *

The entries below are paired with their reported inhibition at 1 µM.
molecular target: MAGL (Mus musculus (Mouse), UniProt O35678); test: In vitro competitive activity-based protein profiling, MAGL (mouse); format: biochemical; settings: 1 μM, read-out: MAGL % inh. 1 μM (mouse)

Some solved entries appear below for comparison.
CC(=O)N(C)c1cnn(C(=O)N2CC3(CCN(Cc4ccccc4C)CC3)C2)c1 [Example 89] | 25 to 50%
CC(=O)N(C)c1cnn(C(=O)N2CC3CN(Cc4cc(Cl)cc(N5CCC6(CCOCC6)C5)c4)CC3C2)c1 (stereo not shown) [Example 247] | ≥ 75%
CS(=O)(=O)Nc1cnn(C(=O)N2CCN(Cc3ccc(-c4cnccn4)cc3C(F)(F)F)CC2)c1 [Example 289] | 25 to 50%

Requested field: inhibition at 1 µM. Item: CC(=O)N(C)c1cnn(C(=O)N2CCC3(CCN(Cc4cccc(Cl)c4Cl)C3)C2)c1 (stereo not shown) [Example 59]
≥ 75%

* * *

target: FAAH (Mus musculus (Mouse)); test: In vitro competitive activity-based protein profiling, FAAH (mouse); type: biochemical; details: 1 μM, read-out: FAAH % inh. 1 μM (mouse)
Sequence (O08914 whole entry): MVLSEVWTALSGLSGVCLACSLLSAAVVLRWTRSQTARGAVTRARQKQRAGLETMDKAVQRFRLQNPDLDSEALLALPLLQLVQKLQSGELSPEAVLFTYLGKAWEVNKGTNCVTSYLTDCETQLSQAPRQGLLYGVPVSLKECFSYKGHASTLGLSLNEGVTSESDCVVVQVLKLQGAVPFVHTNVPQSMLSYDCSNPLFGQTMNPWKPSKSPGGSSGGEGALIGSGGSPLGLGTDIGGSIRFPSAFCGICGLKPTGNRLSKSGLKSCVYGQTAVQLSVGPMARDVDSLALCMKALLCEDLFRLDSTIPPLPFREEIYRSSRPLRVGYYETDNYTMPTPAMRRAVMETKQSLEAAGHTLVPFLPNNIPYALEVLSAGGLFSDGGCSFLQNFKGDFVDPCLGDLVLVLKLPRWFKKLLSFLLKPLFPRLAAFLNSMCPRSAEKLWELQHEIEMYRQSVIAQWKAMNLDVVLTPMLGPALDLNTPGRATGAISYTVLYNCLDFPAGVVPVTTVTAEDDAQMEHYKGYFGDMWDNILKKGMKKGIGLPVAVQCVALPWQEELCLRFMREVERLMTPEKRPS
measured.metric: inhibition at 1 µM

CC(=O)N(C)c1cnn(C(=O)N2CCC3(CCN(Cc4ccc(Cl)cc4)C3)CC2)c1 | ≥ 75%
CC(=O)N(C)c1cnn(C(=O)N2CC3CN(Cc4ccc(OC(C)C)cc4C(F)(F)F)CC3C2)c1 (stereo not drawn) | ≥ 75%
CC(=O)N(C)c1cnn(C(=O)N2C[C@H]3C[C@H](N(Cc4ccc(Cl)cc4)C(C)=O)C[C@H]3C2)c1 | 0 to 25%
CC(=O)N(C)c1cnn(C(=O)N2C[C@H]3C[C@@H](N(C)Cc4cc(N5CCCC5)ccc4C(F)(F)F)C[C@H]3C2)c1 | ≥ 75%
CC(=O)N(C)c1cnn(C(=O)N2CC3CN(Cc4cc(N5CCCC5)ccc4C(F)(F)F)CC3C2)c1 (stereo not drawn) | ≥ 75%

Requested field: inhibition at 1 µM. Item: CC(=O)N(C)c1cnn(C(=O)N2CC3CN(Cc4ccc(OCC(=O)N5CCCC5)cc4Cl)CC3C2)c1 (stereo not drawn)
0 to 25%

Would you kindly repeat that for CC(=O)N(C)c1cnn(C(=O)N2CC3CN(Cc4ccc(N5CCCC5)cc4Cl)CC3C2)c1 (stereo not drawn) ?
≥ 75%

Would you kindly repeat that for CC(=O)N(C)c1cnn(C(=O)N2CC3CN(Cc4ccccc4C(F)(F)F)CC3C2)c1 (stereo not drawn) ?
≥ 75%

* * *

target: MAGL (Mus musculus (Mouse)); assay: In vitro competitive activity-based protein profiling, MAGL (mouse); assay type: biochemical; conditions: 1 μM, read-out: MAGL % inh. 1 μM (mouse)
measured.metric: inhibition at 1 µM

Some solved entries appear below for comparison.
CC(=O)N(C)c1cnn(C(=O)N2CCC3(CCN(Cc4ccccc4Cl)C3)CC2)c1 | ≥ 75%
CC(=O)N(C)c1cnn(C(=O)N2CC3(CCN(Cc4cccc(C)c4)CC3)C2)c1 | 25 to 50%

Requested field: inhibition at 1 µM. Item: `CC(=O)N(C)c1cnn(C(=O)N2C[C@H]3C[C@H](NCc4ccc(Cl)cc4)C[C@H]3C2)c1`
≥ 75%

Would you kindly repeat that for `CC(=O)N(C)c1cnn(C(=O)N2CCC3(CC2)CN(Cc2ccccc2C(F)(F)F)C3)c1` ?
≥ 75%

Would you kindly repeat that for `CC(=O)N(C)c1cnn(C(=O)N2CCC3(CC2)CN(Cc2ccccc2C)C3)c1` ?
≥ 75%

* * *

molecular target: MAGL (Mus musculus (Mouse), UniProt O35678); experiment: In vitro competitive activity-based protein profiling, MAGL (mouse); type: biochemical; conditions: 1 μM, read-out: MAGL % inh. 1 μM (mouse)
measured.metric: inhibition at 1 µM

CC(=O)N(C)c1cnn(C(=O)N2CCC3(CCN(Cc4ccc(C)cc4)C3)C2)c1 (stereo not shown) | 0 to 25%
CC(=O)N(C)c1cnn(C(=O)N2CCN(Cc3ccc(C(F)(F)F)cc3N3CCCC3)CC2)c1 | ≥ 75%
COc1ccc(CN2CCC3(CCN(C(=O)n4cc(N(C)C(C)=O)cn4)C3)C2)cc1 (stereo not shown) | 0 to 25%
CC(=O)N(C)c1cnn(C(=O)N2C[C@H]3C[C@@H](N(C)Cc4cc(C(F)(F)F)ccc4N4CCCC4)C[C@H]3C2)c1 | ≥ 75%
CC(=O)N(C)c1cnn(C(=O)N2CCC3(CCN(Cc4cc(Cl)ccc4C(F)(F)F)C3)C2)c1 (stereo not shown) | ≥ 75%

Form field - read-out: inhibition at 1 µM; system: MAGL (Mus musculus (Mouse), UniProt O35678); submitted item: CC(=O)N(C)c1cnn(C(=O)N2CC3CN(Cc4cc(C)cc(C)c4)CC3C2)c1 (stereo not shown)
≥ 75%

Would you kindly repeat that for CC(=O)N(C)c1cnn(C(=O)N2CCC3(CCN(Cc4cccc(Oc5ccccc5)c4)C3)C2)c1 (stereo not shown) ?
≥ 75%

* * *

Biological target: MAGL (Homo sapiens (Human), UniProt Q99685)
Sequence (Q99685 whole entry): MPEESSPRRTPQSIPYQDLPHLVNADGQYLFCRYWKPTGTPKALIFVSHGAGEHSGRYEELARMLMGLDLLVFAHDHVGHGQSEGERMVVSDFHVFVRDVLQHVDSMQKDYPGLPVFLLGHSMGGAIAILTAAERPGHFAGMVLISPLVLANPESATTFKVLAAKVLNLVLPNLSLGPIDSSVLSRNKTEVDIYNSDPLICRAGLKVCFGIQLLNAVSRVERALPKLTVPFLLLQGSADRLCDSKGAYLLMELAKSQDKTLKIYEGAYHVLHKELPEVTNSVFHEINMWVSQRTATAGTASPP
Assay: In vitro competitive activity-based protein profiling, MAGL (human)
Type: biochemical
Conditions: 1 μM, human proteome; read-out: MAGL % inh. 1 μM (human)
Description: In Vitro Competitive Activity-Based Protein Profiling. Proteomes (mouse brain membrane fraction or cell lysates for mouse assays; human prefrontal cortex or cell membrane fractions for human assays) (50 μL, 1.0 mg/mL total protein concentration) were preincubated with varying concentrations of inhibitors at 37° C. […] Following gel imaging, serine hydrolase activity was determined by measuring fluorescent intensity of gel bands corresponding to MAGL and FAAH using ImageJ 1.43u software.
measured.metric: inhibition at 1 µM

Some solved entries appear below for comparison.
CS(=O)(=O)Nc1cnn(C(=O)N2CCN(Cc3ccc(-c4ncccn4)cc3C(F)(F)F)CC2)c1 | ≥ 75%
Cc1nnc(-c2ccc(CN3CCN(C(=O)n4cc(NS(C)(=O)=O)cn4)CC3)c(C(F)(F)F)c2)o1 | 50 to 75%
CS(=O)(=O)Nc1cnn(C(=O)N2CCC3(CCN(Cc4ccc(N5CCCC5)c(Cl)c4)C3)CC2)c1 | ≥ 75%

Turning now to a further record.
Requested field: inhibition at 1 µM. Item: CC(=O)Nc1cnn(C(=O)N2CC3CN(Cc4cccc(Oc5ccc(Cl)cc5)c4)CC3C2)c1 (stereo not shown)
≥ 75%

* * *

molecular target: MAGL (Mus musculus (Mouse), UniProt O35678); assay: In vitro competitive activity-based protein profiling, MAGL (mouse); assay type: biochemical; conditions: 1 μM, read-out: MAGL % inh. 1 μM (mouse)
The entries below are paired with their reported inhibition at 1 µM.

Some solved entries appear below for comparison.
CS(=O)(=O)Nc1cnn(C(=O)N2CCC3(CC2)CN(Cc2cc(Cl)ccc2C(F)(F)F)C3)c1 | ≥ 75%
CC(=O)N(C)c1cnn(C(=O)N2CC3CN(Cc4ccc(Oc5cncnc5)cc4Cl)CC3C2)c1 (stereo not drawn) | ≥ 75%
CC(=O)N(C)c1cnn(C(=O)N2CC3CN(Cc4ccc(Cl)c(Cl)c4)CC3C2)c1 (stereo not drawn) | ≥ 75%

Requested field: inhibition at 1 µM. Item: `CC(=O)N(C)c1cnn(C(=O)N2C[C@H]3C[C@H](N(C)Cc4ccc(N5CCCC5)c(C(F)(F)F)c4)C[C@H]3C2)c1`
≥ 75%

Would you kindly repeat that for `CC(=O)N(C)c1cnn(C(=O)N2C[C@H]3C[C@@H](NCc4cccc(Cl)c4)C[C@H]3C2)c1` ?
0 to 25%

Would you kindly repeat that for CC(=O)N(C)c1cnn(C(=O)N2CC3CN(Cc4cc(F)c(F)cc4F)CC3C2)c1 (stereo not drawn) ?
≥ 75%
